# System: E. coli TESEC Mtb Alr
# EXPERIMENT DESCRIPTION: growth (OD600 after 10 h); higher = more growth (less inhibition)
# STUDY CONDITIONS: arabinose 10000 nM; compound 0.1 mM; raw OD600 reference: median of DMSO wells 0.264, cell-free background 0.041
Counter-ions that a name gives are not always drawn.
Label rule, in plain words: growth of 0.2 and up is Satisfied, under 0.2 is Not satisfied.

Consider the following illustrative entries.
1) COc1nc(C)nc(Cl)c1NC1=NCCN1 ... Satisfied
2) CN1Cc2c(N)cccc2C(c2ccccc2)C1 (configuration not stated) [Nomifensine maleate] ... Satisfied

Determine whether this molecule has growth no lower than 0.2: O=C(O)CN(CCN(CC(=O)O)CC(=O)O)CCN(CC(=O)O)CC(=O)O Not satisfied

Thanks! And CCOC(=O)[N-]c1c[n+](N2CCOCC2)no1 ? Satisfied

Another: CN(C)/N=N/c1[nH]cnc1C(N)=O Satisfied

Same question, NCCC[C@H](N)CC(=O)N[C@H]1CNC(=O)[C@H]([C@H]2C[C@H](O)NC(N)=N2)NC(=O)/C(=C/NC(N)=O)NC(=O)[C@H](CO)NC(=O)[C@H](CO)NC1=O [Viomycin sulfate] this time Not satisfied

Same lookup for OCCN1CCN(CC/C=C2/c3ccccc3Sc3ccc(Cl)cc32)CC1 [Zuclopenthixol dihydrochloride] , please. Not satisfied

Now consider Cc1ccc(Cl)c(Nc2ccccc2C(=O)O)c1Cl [Meclofenamic acid sodium salt monohydrate] and answer again. Not satisfied

For CC(C)(C)c1ccc(C(O)CCCN2CCC(C(O)(c3ccccc3)c3ccccc3)CC2)cc1 (configuration not stated) then? Satisfied

CC(=O)OCC(=O)[C@@]12OC3(CCCC3)O[C@@H]1C[C@H]1[C@@H]3CCC4=CC(=O)C=C[C@]4(C)[C@@]3(F)[C@@H](O)C[C@@]12C [Amcinonide] , same question. Satisfied

And what about the molecule Cc1cccn2c(=O)c(-c3nnn[nH]3)cnc12 ? Satisfied

Now consider O=c1[nH]c(=O)n(C2CCCO2)cc1F (configuration not stated) and answer again. Satisfied

Further, for Cc1ncc([N+](=O)[O-])n1CC(C)O (configuration not stated) ? Satisfied

# iterate: CN(CCOc1ccc(NS(C)(=O)=O)cc1)CCc1ccc(NS(C)(=O)=O)cc1 [Dofetilide] Satisfied

Param item: Cc1cc(O)c(C(=O)N[C@@H](C(=O)N[C@@H]2C(=O)N3C(C(=O)O)=C(CSc4nnnn4C)CS[C@H]23)c2ccc(O)cc2)cn1 [Cefpiramide] Satisfied

// same read-out, input: N#Cc1cc(NC(=O)C(=O)O)c(Cl)c(NC(=O)C(=O)O)c1 [Lodoxamide] Satisfied

What about Nc1nc(N)c2nc(-c3ccccc3)c(N)nc2n1 ? Not satisfied

====

# Test system: E. coli TESEC Mtb Asd
# EXPERIMENT DESCRIPTION: growth (OD600 after 10 h); higher = more growth (less inhibition)
# STUDY CONDITIONS: arabinose induction (level): Low; compound 0.1 mM; raw OD600 reference: median of DMSO wells 0.417, cell-free background 0.041
Counter-ions that a name gives are not always drawn.
OUTCOME MEASURE: growth
// response body must contain only the number

1. C#C[C@]1(O)CC[C@H]2[C@@H]3CCC4=C(CCC(=O)C4)[C@H]3CC[C@@]21C [Norethynodrel] ... 0.13
2. CN(C)CC/C=C1\c2ccccc2CSc2ccccc21 [Dosulepin hydrochloride] ... 0.263
3. O=C(Nc1cccc2c(=O)cc(-c3nnn[nH]3)oc12)c1ccc(OCCCCc2ccccc2)cc1 [Pranlukast] ... 0.238
4. Cc1c(N)c(=O)n(-c2ccccc2)n1C [Ampyrone] ... 0.446
5. CC(C)(C)CC(C)(C)c1ccc(OCOCCOCCO)c(Cc2cc(C(C)(C)CC(C)(C)C)cc(Cc3cc(C(C)(C)CC(C)(C)C)ccc3OCOCCOCCO)c2OCOCCOCCO)c1 [Tyloxapol] ... 0.509
6. COc1cc2c(cc1OC)C(=O)C(CC1CCN(Cc3ccccc3)CC1)C2 (stereo not drawn) [Donepezil hydrochloride] ... 0.403
7. CC[N+](C)(CC)CCC[n+]1c(-c2ccccc2)c2cc(N)ccc2c2ccc(N)cc21 [Propidium iodide] ... 0.0953

In the following, a different molecule is considered.
Requested read-out: growth. Entry: CN(C)CCC=C1c2ccccc2C=Cc2ccccc21 [Cyclobenzaprine hydrochloride] 0.262

====

# System: E. coli TESEC Mtb DapB
# EXPERIMENT DESCRIPTION: growth (OD600 after 10 h); higher = more growth (less inhibition)
# STUDY CONDITIONS: arabinose induction (level): Low; compound 0.1 mM; raw OD600 reference: median of DMSO wells 0.227, cell-free background 0.041
Counter-ions that a name gives are not always drawn.
Reported growth values for the following compounds.
Number, no unit, nothing else.

The cases that follow already have their growth on record.
1. CC(C(=O)O)c1cccc(Oc2ccccc2)c1 (stereo not drawn) [Fenoprofen calcium salt dihydrate] ... 0.192
2. CC(C)(C)NCC(O)COc1cccc2c1CCC(=O)N2 (stereo not drawn) [Carteolol hydrochloride] ... 0.217
3. CCOc1ccccc1OC(c1ccccc1)C1CNCCO1 (stereo not drawn) [Reboxetine mesylate] ... 0.183

Fill blank: measured growth of the compound CN1CCc2c(c3ccccc3n2Cc2ccccc2)C1 [Mebhydroline 1,5-naphtalenedisulfonate] is ____. 0.207

Query CCOC(=O)NNc1nncc2ccccc12 [Todralazine hydrochloride] next 0.275

Also CC(C)(C)C(=O)OCOC(=O)[C@@H]1N2C(=O)[C@@H](/N=C/N3CCCCCC3)[C@H]2SC1(C)C [Pivmecillinam hydrochloride] , if possible. 0.222

Okay, and CC(C)NCC(O)c1cc(O)cc(O)c1 (stereo not drawn) [Metaproterenol sulfate, orciprenaline sulfate] ? 0.183

One more compound: O=C(O)c1cccnc1Nc1cccc(C(F)(F)F)c1 0.209

====

# Tested on: E. coli TESEC Mtb DapB
# EXPERIMENT DESCRIPTION: growth (OD600 after 10 h); higher = more growth (less inhibition)
# STUDY CONDITIONS: arabinose induction (level): High; compound 0.1 mM; raw OD600 reference: median of DMSO wells […], cell-free background 0.041
Where a name gives a salt, the structure may show the parent alone.
OUTCOME MEASURE: growth

Some solved entries appear below for comparison.
1. CC[N+](CC)(CC(=O)Nc1c(C)cccc1C)Cc1ccccc1 [Denatonium benzoate] ... 0.189
2. CC(=O)[C@@]12O[C@](C)(c3ccccc3)O[C@@H]1C[C@H]1[C@@H]3CCC4=CC(=O)CC[C@]4(C)[C@H]3CC[C@@]12C [Algestone acetophenide] ... 0.15
3. Cn1c(=O)c2c(ncn2C)n(C)c1=O ... 0.192
4. COCCCC/C(=N\OCCN)c1ccc(C(F)(F)F)cc1 [Fluvoxamine maleate] ... 0.183
5. CC(=O)CC(c1ccccc1)c1c(O)c2ccccc2oc1=O (stereo not drawn) ... 0.2
6. Clc1ccc(CO/N=C(\Cn2ccnc2)c2ccc(Cl)cc2Cl)c(Cl)c1 [Oxiconazole Nitrate] ... 0.0621
7. OCCN1C[C@H](O)[C@@H](O)[C@H](O)[C@H]1CO ... 0.207

Any idea what its growth is? The molecule is N[C@@H](C(=O)N[C@@H]1C(=O)N2C(C(=O)O)=C(Cl)CS[C@H]12)c1ccccc1 [Cefaclor hydrate] 0.201

====

Reported values of growth for individual entries
# Tested on: E. coli TESEC Mtb Alr
# EXPERIMENT DESCRIPTION: growth (OD600 after 10 h); higher = more growth (less inhibition)
# STUDY CONDITIONS: arabinose 10000000 nM; compound 0.1 mM; raw OD600 reference: median of DMSO wells 0.146, cell-free background 0.041
Counter-ions that a name gives are not always drawn.
Respond with the number and no other words.

1) CCN(CC)CCNc1ccc(CO)c2sc3ccccc3c(=O)c12 ... 0.0769

Provide the documented growth with E. coli TESEC Mtb Alr as the system for Nc1c(Br)cc(Br)cc1CN[C@H]1CC[C@H](O)CC1 [Ambroxol hydrochloride] 0.149

Another molecule to check: N=C(N)NC(=O)Cc1c(Cl)cccc1Cl [Guanfacine hydrochloride] 0.165

Also check N/C(=N\C(=O)c1nc(Cl)c(N)nc1N)NCc1ccccc1 [Benzamil hydrochloride] 0.161

Now this one: COC(=O)Nc1nc2cc(C(=O)c3ccccc3)ccc2[nH]1 0.159

Here is the next molecule: CCN(CC)CCOC(=O)c1ccc(N)cc1 [Procaine hydrochloride] 0.146

What about this molecule? CCCCC(C)(O)C/C=C/[C@H]1[C@H](O)CC(=O)[C@@H]1CCCCCCC(=O)OC (mixture of isomers) 0.22

Now try COc1cc2nc(N3CCN(C(=O)C4COc5ccccc5O4)CC3)nc(N)c2cc1OC (stereo not drawn) [Doxazosin mesylate] . 0.0449

Same lookup for COc1ccc(C(=O)CC(=O)c2ccc(C(C)(C)C)cc2)cc1 , please. 0.109

Follow-up entry: C[C@H](CCC(=O)O)[C@H]1CC[C@H]2[C@@H]3C(=O)C[C@@H]4CC(=O)CC[C@]4(C)[C@H]3CC(=O)[C@]12C [Dehydrocholic acid] 0.138
